Target: ENPP1 (Homo sapiens)
Sequence (P22413 whole entry): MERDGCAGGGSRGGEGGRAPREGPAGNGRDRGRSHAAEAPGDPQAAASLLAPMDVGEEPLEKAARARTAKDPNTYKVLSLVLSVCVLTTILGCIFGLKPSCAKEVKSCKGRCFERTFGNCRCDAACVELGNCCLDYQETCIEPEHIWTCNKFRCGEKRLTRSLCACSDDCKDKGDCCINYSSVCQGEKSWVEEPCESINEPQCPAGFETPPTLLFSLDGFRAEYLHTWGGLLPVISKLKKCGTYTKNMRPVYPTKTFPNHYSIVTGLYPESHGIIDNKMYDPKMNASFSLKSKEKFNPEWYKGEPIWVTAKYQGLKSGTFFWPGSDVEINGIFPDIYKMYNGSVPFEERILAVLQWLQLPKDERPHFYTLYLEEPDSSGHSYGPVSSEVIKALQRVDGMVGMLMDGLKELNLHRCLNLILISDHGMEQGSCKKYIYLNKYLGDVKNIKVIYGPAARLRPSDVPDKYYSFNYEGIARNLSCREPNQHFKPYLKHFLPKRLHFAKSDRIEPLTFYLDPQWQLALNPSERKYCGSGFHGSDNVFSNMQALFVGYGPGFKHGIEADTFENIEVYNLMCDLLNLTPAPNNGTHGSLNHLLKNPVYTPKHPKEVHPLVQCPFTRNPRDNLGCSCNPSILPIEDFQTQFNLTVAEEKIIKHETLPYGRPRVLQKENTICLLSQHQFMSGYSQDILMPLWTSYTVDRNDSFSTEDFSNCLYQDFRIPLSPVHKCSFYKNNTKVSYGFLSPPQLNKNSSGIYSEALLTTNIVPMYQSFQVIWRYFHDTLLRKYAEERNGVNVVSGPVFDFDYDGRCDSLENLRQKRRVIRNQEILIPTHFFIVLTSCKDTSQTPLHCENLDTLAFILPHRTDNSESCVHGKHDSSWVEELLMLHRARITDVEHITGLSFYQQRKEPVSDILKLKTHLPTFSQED
Assay: Indirect quantitation of 2',3'-cGAMP hydrolysis (AMP-Glo Assay kit)
Format: biochemical
measure-name: Ki

Below, each entry is followed by its recorded Ki result.
structure | Ki
CCN(C)S(=O)(=O)NCCC1CCN(c2ncnc3cc(OC)c(OC)cc23)CC1 | 100 to 1000 nM
COc1cc2ncnc(N3CCN(CCNS(N)(=O)=O)CC3)c2cc1OC | < 100 nM

## Task So what does the record say about Ki for `NS(=O)(=O)NCCC1CCN(c2ccnc(Nc3ccccn3)n2)CC1` ?
## Result > 1000 nM

## Task Same lookup for `COc1ccc2c(Oc3ccc(NS(N)(=O)=O)cc3)ccnc2c1` , please.
## Result < 100 nM

## Task Can you check `COc1cc2ncnc(N3CCN(C(=O)CNS(N)(=O)=O)CC3)c2cc1OC` next?
## Result < 100 nM

## Task Now the same for `COc1cc2nc(-c3cccnc3)nc(N3CCC(CCNS(N)(=O)=O)CC3)c2cc1OC`
## Result 100 to 1000 nM
